# Assay Summary: Protein binding in human plasma by balanced dialysis method
# Type: ADME, cell-free
# Measurement Parameters: read-out: PPB (converted)
Assay Metric: fraction unbound

Query: Report fraction unbound for COc1ccc(Cc2cccc(O[C@@H]3O[C@H](CO)[C@@H](O)[C@H](O)[C@H]3O)c2)cc1
Reply: 0.669

Query: Report fraction unbound for OC[C@H]1O[C@@H](OCCc2ccc(O)cc2)[C@H](O)[C@@H](O)[C@@H]1O [SALIDROSIDE]
Reply: 0.873

----------
# Assay Summary: Dissociation constant, pKa of compound by UV-visible spectrometric method
# Type: physicochemical
Assay Metric: pKa

Query: Report pKa for OC[C@H]1O[C@@H](Oc2ccc(Cc3ccc(O)cc3)cc2)[C@H](O)[C@@H](O)[C@@H]1O
Reply: 10.4

Query: Report pKa for OC[C@H]1O[C@@H](OCCc2ccc(O)cc2)[C@H](O)[C@@H](O)[C@@H]1O [SALIDROSIDE]
Reply: 10.1

----------
# Assay Summary: Microsomal stability in rat liver microsomes assessed as compound remaining after 30 min by HPLC analysis
# Format: ADME, Microsome
# Measurement Parameters: read-out: Stability
Assay Metric: remaining at 0.5 h (%)

[I] COc1ccc(Cc2cccc(O[C@@H]3O[C@H](CO)[C@@H](O)[C@H](O)[C@H]3O)c2)cc1
[II] OC[C@H]1O[C@@H](OCCc2ccc(O)cc2)[C@H](O)[C@@H](O)[C@@H]1O [SALIDROSIDE]
Query: Lab log: flag the item ( I or II ) with the smaller remaining at 0.5 h figure. Lab note: record the label of whichever item you select.
Reply: II

----------
# Assay Summary: Water solubility of the compound by HPLC analysis
Assay Metric: solubility (µg/mL)

Example entries begin here.
Query: Report solubility for OC[C@H]1O[C@@H](OCCc2ccc(O)cc2)[C@H](O)[C@@H](O)[C@@H]1O [SALIDROSIDE]
Reply: 472000

Query: Report solubility for COc1ccc(Cc2ccccc2O[C@@H]2O[C@H](CO)[C@@H](O)[C@H](O)[C@H]2O)cc1
Reply: 6710

[P] COc1ccc(Cc2ccc(O[C@@H]3O[C@H](CO)[C@@H](O)[C@H](O)[C@H]3O)cc2)cc1
[Q] COc1ccc(Cc2cccc(O[C@@H]3O[C@H](CO)[C@@H](O)[C@H](O)[C@H]3O)c2)cc1
Query: Lab log: flag the item ( P or Q ) with the smaller solubility figure. Lab note: record the label of whichever item you select.
Reply: P
(P: 1320 µg/mL, Q: 1910 µg/mL)

----------
# Assay Summary: Octanol/Water partition coefficient, log P of the compound by HPLC-UV analysis
Assay Metric: logP

Query: Report logP for COc1ccc(Cc2ccc(O[C@@H]3O[C@H](CO)[C@@H](O)[C@H](O)[C@H]3O)cc2)cc1
Reply: 1.02

Query: Report logP for COc1ccc(Cc2ccccc2O[C@@H]2O[C@H](CO)[C@@H](O)[C@H](O)[C@H]2O)cc1
Reply: 1.07

[P] OC[C@H]1O[C@@H](Oc2ccc(Cc3ccc(O)cc3)cc2)[C@H](O)[C@@H](O)[C@@H]1O
[Q] COc1ccc(Cc2cccc(O[C@@H]3O[C@H](CO)[C@@H](O)[C@H](O)[C@H]3O)c2)cc1
[R] OC[C@H]1O[C@@H](OCCc2ccc(O)cc2)[C@H](O)[C@@H](O)[C@@H]1O [SALIDROSIDE]
Query: Order the records by logP, with each subsequent value no larger than the one before. Return value: ordered labels per request.
Reply: Q, P, R
(Q: 0.971, P: 0.076, R: -2.42)

----------
# Assay Summary: Efflux ratio of Apparent permeability across basolateral to apical side over apical to basolateral side in human Caco-2 cells
Assay Metric: efflux ratio

Example entries begin here.
Query: Report efflux ratio for OC[C@H]1O[C@@H](OCCc2ccc(O)cc2)[C@H](O)[C@@H](O)[C@@H]1O [SALIDROSIDE]
Reply: 1.09

Query: Report efflux ratio for COc1ccc(Cc2ccc(O[C@@H]3O[C@H](CO)[C@@H](O)[C@H](O)[C@H]3O)cc2)cc1
Reply: 1.06

Query: Report efflux ratio for COc1ccc(Cc2ccccc2O[C@@H]2O[C@H](CO)[C@@H](O)[C@H](O)[C@H]2O)cc1
Reply: 1.04

Query: Report efflux ratio for OC[C@H]1O[C@@H](Oc2ccc(Cc3ccc(O)cc3)cc2)[C@H](O)[C@@H](O)[C@@H]1O
Reply: 1.09

[I] COc1ccc(Cc2cccc(O[C@@H]3O[C@H](CO)[C@@H](O)[C@H](O)[C@H]3O)c2)cc1
[II] C[C@H]1O[C@@H](O[C@H]2[C@@H](O)C[C@H](O[C@H]3[C@@H](O)C[C@H](O[C@H]4CC[C@@]5(C)[C@H](CC[C@@H]6[C@@H]5C[C@@H](O)[C@]5(C)[C@@H](C7=CC(=O)OC7)CC[C@]65O)C4)O[C@@H]3C)O[C@@H]2C)C[C@H](O)[C@@H]1O
Query: Lab log: flag the item ( I or II ) with the smaller efflux ratio figure. Lab note: record the label of whichever item you select.
Reply: I
(I: 1.07, II: 11.1)

----------
# Assay Summary: Dissociation constant, pKa of compound by UV-visible spectrometric method
# Format: physicochemical
Assay Metric: pKa

Query: Report pKa for COc1ccc(Cc2cccc(O[C@@H]3O[C@H](CO)[C@@H](O)[C@H](O)[C@H]3O)c2)cc1
Reply: > 14

Query: Report pKa for COc1ccc(Cc2ccccc2O[C@@H]2O[C@H](CO)[C@@H](O)[C@H](O)[C@H]2O)cc1
Reply: > 14

Others:
Query: Report pKa for COc1ccc(Cc2ccc(O[C@@H]3O[C@H](CO)[C@@H](O)[C@H](O)[C@H]3O)cc2)cc1
Reply: > 14
